meta.source: the supplement of paper PMC12338614

B1: library; numbered along this chain (parent)
chain: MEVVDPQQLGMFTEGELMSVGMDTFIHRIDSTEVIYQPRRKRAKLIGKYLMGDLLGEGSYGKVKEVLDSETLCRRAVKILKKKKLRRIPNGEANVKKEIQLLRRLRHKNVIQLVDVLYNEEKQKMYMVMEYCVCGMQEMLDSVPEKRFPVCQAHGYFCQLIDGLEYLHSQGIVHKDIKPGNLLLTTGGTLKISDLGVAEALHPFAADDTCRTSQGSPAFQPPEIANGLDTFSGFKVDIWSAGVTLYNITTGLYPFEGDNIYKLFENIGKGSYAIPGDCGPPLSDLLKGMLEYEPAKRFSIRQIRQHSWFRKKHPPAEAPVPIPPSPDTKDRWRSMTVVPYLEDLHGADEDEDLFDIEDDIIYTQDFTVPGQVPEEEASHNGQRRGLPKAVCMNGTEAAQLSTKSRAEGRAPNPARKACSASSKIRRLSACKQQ

Variants of: B1
TEST_DETAILS: STK11 functional score (HeLa growth suppression), rescaled enrichment; synonymous median = 1, nonsense median = 0 (normalised score)
CONDITION: with HeLa; variant type: missense
The threshold is 1. Values of STK11 functional score beneath it are tagged criterion met; values meeting or exceeding it are tagged criterion not met.

# count of solved cases: 5
In [3]: df
Out[3]:
   sequence_change     category_label
0            P413M  criterion not met
1            R304S      criterion met
2            L286H      criterion met
3            Q302W      criterion met
4            D350E  criterion not met

Input line: Field: below-cutoff. Rule: recorded STK11 functional score strictly less than 1. Subject: `T395H`
Output line: criterion not met

Input line: Can you check `Q100T` next?
Output line: criterion not met

Input line: Can you check `G15Y` next?
Output line: criterion not met

Input line: Can you check `F255R` next?
Output line: criterion met

Input line: Can you check `L201M` next?
Output line: criterion met
